Test: calcein-AM signal in unstimulated myeloma cells – cell-based, calcein-AM fluorescence, 48 h, PK04 Diversity Set, profiling panel (AID 1166);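 further: cells grown under basal conditions without added stimulus; test concentration not given here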
Conditions: RPMI8226 myeloma viability, higher = more signal
Value Type: z-score

# example entries with known answers
{"Compound": "O=C(NC1CC1)[C@@H]1c2ccccc2C(=O)N(Cc2cc(C(F)(F)F)cc(C(F)(F)F)c2)[C@H]1c1ccc(CO)cc1", "Result": -1.32}
{"Compound": "COC(=O)[C@@]1(Cc2ccccc2)[C@H]2c3cc(C(=O)N(C)C)n(Cc4ccc(S(C)(=O)=O)cc4)c3C[C@H]2CN1C(=O)c1ccccc1", "Result": -1.39}
{"Compound": "COc1ccc([Si](C)(C)[C@H]2[C@H](CCO)O[C@@]3(C(=O)N(Cc4cccc(N(C=O)c5ccccc5)c4)c4ccccc43)[C@@H]2C)cc1", "Result": -4.23}
{"Compound": "C=CCN1C(=O)[C@@]2(O[C@@H](CCn3cc([C@H](O)c4ccccc4)nn3)[C@H]([Si](C)(C)c3ccc(OC)cc3)[C@H]2C)c2cc(N3C(=O)c4cccc5cccc3c45)ccc21", "Result": -4.04}

The measured z-score associated with COCCCNC(=O)[C@@H]1c2ccccc2C(=O)N(Cc2ccc(OC(F)(F)F)cc2)[C@H]1c1ccc(CO)cc1 reads 0.317

The measured z-score associated with CCOc1cc(C(O)C2C=CC3C(=O)N(c4ccccc4)C(=O)C3N2Nc2ccccc2F)ccc1O (configuration not stated) reads -0.18

The measured z-score associated with CN1C(=O)[C@@H]2[C@@H](CC(COc3ccccc3)=C3[C@@H](CCc4ccccc4)OB(O)C[C@@H]32)C1=O reads -0.802

###

Experiment: plasmodial surface anion channel blockers, osmotic lysis – cell-based, P. falciparum Indochina, OD700, 18 h, primary screen (AID 1157)
Conditions: P. falciparum Indochina infected erythrocytes, osmotic lysis OD700, 18 h; higher = more signal, called active from +8 up or from −8 down
Value Type: z-score
No unit in the answer, only the number.

# example entries with known answers
{"Molecule": "COC(=O)C1=CC(CCCO)=CC(c2cccs2)N(Cc2cc3c(cc2Br)OCO3)C=C1C(=O)OC (stereo not given)", "z-score": 0.621}
{"Molecule": "COc1ccc([Si](C)(C)[C@@H]2[C@@H](CC(=O)N3CCC[C@H]3CO)O[C@]3(C(=O)N(Cc4ccc(N5CCOC5=O)cc4)c4ccccc43)[C@H]2C)cc1", "z-score": -0.774}

The measured z-score associated with CCCN1C(=O)[C@]2(CCC(=O)OC(C)(C)C)N=C(c3ccc(OCCCO)cc3)O[C@@H]2c2ccccc21 reads 8.76

The measured z-score associated with COCCn1c(C(=O)N(C)C)cc2c1C[C@H]1CN(C(=O)c3ccccc3)[C@@](Cc3ccc(OC)cc3)(C(=O)OC)[C@@H]21 reads 1.23

The measured z-score associated with CC(C)NC(=O)[C@@]1(c2ccc([N+](=O)[O-])cc2)CC(=O)N(CC23CC4CC(CC(C4)C2)C3)[C@@H]1c1ccc(CO)cc1 reads 0.204

The measured z-score associated with COC(=O)[C@@]1(Cc2ccccc2)[C@H]2c3cc(C(=O)N(C)C)n(CCSC(=N)N)c3C[C@H]2CN1C(=O)c1ccccc1 reads 0.494

The measured z-score associated with CO[C@H]1O[C@H](CO)[C@@H](OC(=O)Nc2ccc3c(c2)OCO3)[C@H](OC(=O)Nc2ccccc2-c2ccccc2)[C@H]1OC(=O)Nc1ccccc1-c1ccccc1 reads 1.21

The measured z-score associated with COc1cc(OC)c(C(O)C2C=CC3C(=O)N(c4ccccc4)C(=O)C3N2Nc2ccc(C(C)C)cc2)cc1Br (stereo not given) reads 1.49

The measured z-score associated with COc1ccccc1CN1C(=O)c2ccccc2[C@](Cc2ccccc2I)(C(=O)NCC(C)C)[C@@H]1c1ccc(CO)cc1 reads 0.745

The measured z-score associated with Cc1ccc(C(C)CC(O)C2C=CC3C(=O)N(C)C(=O)C3N2Nc2ccccc2)o1 (stereo not given) reads 1.17

The measured z-score associated with COc1ccc(NN2C(C(O)c3ccc(I)cc3)C=CC3C(=O)N(C4CCCCC4)C(=O)C32)cc1 (stereo not given) reads 0.706

The measured z-score associated with O=C(NCCN1CCOCC1)[C@@H]1c2ccccc2C(=O)N(Cc2ccc(OC(F)(F)F)cc2)[C@H]1c1ccc(CO)cc1 reads -0.161

The measured z-score associated with C=C(/C(=C/C[C@@H](OC(C)=O)c1cccc(OCCO)c1)c1cnc2ccccc2c1)C(C)C reads 0.895

The measured z-score associated with CC(C)(C)N1CC=CC23O[C@@H]4C=CCCOC(=O)C4[C@H]2C(=O)N(CCCCCCO)[C@@H]3C1=O (stereo not given in full) reads 0.233

The measured z-score associated with COC(=O)[C@@]1(Cc2ccc(F)cc2)[C@H]2c3cc(C(=O)N4CCCC4)n(Cc4ccccn4)c3C[C@H]2CN1C(=O)c1ccccc1 reads 0.987
